Tested on: DU-145 prostate
TEST_NAME: NCI tumour cell line growth inhibition, 48 h; in the data active = GI50 below about 0.43 µM; inactive = the rest
Outcomes: active, inactive

- SMILES_STRING: "O=C(Cc1csc2nc(-c3ccc(Br)cc3)cn12)N/N=C/c1ccc(Cl)cc1Cl"
  LABEL_CLASS: "inactive"
- SMILES_STRING: "COc1ccc2c(c1)[nH]c(=O)c1c3cc(OC)c(OC)cc3cn21"
  LABEL_CLASS: "active"
- SMILES_STRING: "COc1ccc(-n2cc(-c3cc(OC)c(OC)c(OC)c3)[nH]c2=S)cc1Cl"
  LABEL_CLASS: "inactive"
- SMILES_STRING: "COc1cc(-c2nc(-c3ccc(-c4nc5ccc(F)cc5[nH]4)cc3)no2)cc(OC)c1OC"
  LABEL_CLASS: "inactive"
- SMILES_STRING: "O=c1c2c(=NCCN3CCCC3)cc3c(=O)n(CCCN4CCOCC4)c(=O)c4ccc(c(O)n1CCCN1CCOCC1)c2c4-3"
  LABEL_CLASS: "active"
- SMILES_STRING: "COc1cc(/C(=C2/O[C@@H]([C@H]3COC(C)(C)O3)[C@H]3OC(C)(C)O[C@@H]23)c2ccc3c(c2)OCO3)cc(OC)c1OC"
  LABEL_CLASS: "inactive"
- SMILES_STRING: "O=C(O)c1cn(C2CC2)c2cc(N3CCNCC3)c(F)cc2c1=O"
  LABEL_CLASS: "inactive"
- SMILES_STRING: "CCSc1ccc([C@@H]2[C@@H](N)C(=O)N2c2cc(OC)c(OC)c(OC)c2)cc1"
  LABEL_CLASS: "active"
- SMILES_STRING: "O=C(Nc1ccc(Nc2ccncc2)cc1)c1ccc(Nc2ccnc3ccc([N+](=O)[O-])cc23)cc1[N+](=O)[O-]"
  LABEL_CLASS: "inactive"
- SMILES_STRING: "CNC(=O)c1cc(Oc2ccc3nc(N[C@@H]4CCCC[C@H]4O)sc3c2)ccn1"
  LABEL_CLASS: "inactive"
- SMILES_STRING: "Cc1cc(NCc2cc(Nc3ccnc4cc(Cl)ccc34)ccc2F)nc(N2CCSCC2)n1"
  LABEL_CLASS: "inactive"
- SMILES_STRING: "O=C(CCN1CCCC1)Nc1ccc2c(NCCc3ccccc3)c3ccccc3nc2c1"
  LABEL_CLASS: "active"
- SMILES_STRING: "CN1CCN(c2ccc3nc(-c4[nH]ncc4Nc4ncnc5c4OCCCN5)[nH]c3c2)CC1"
  LABEL_CLASS: "active"
- SMILES_STRING: "CCOC(=O)c1ccc(N(C=O)CCC(=O)CCl)cc1"
  LABEL_CLASS: "active"
- SMILES_STRING: "CC(=O)Nc1ccc(-c2csc(Nc3cccc(-c4csc(-c5ccccc5)n4)c3)n2)cc1"
  LABEL_CLASS: "inactive"
- SMILES_STRING: "O=C1NC(=O)[C@@H](c2c[nH]c3ccccc23)[C@@H]1c1c[nH]c2ccccc12"
  LABEL_CLASS: "inactive"
- SMILES_STRING: "CCCCCCCCCCC[C@@H](C[C@H]1OC(=O)[C@H]1CCCCCC)OC(=O)[C@@H](CC(C)C)NC=O"
  LABEL_CLASS: "inactive"
- SMILES_STRING: "COc1ccc(C(=O)/C=C/c2cc(-c3ccc4c(c3)OCO4)n[nH]2)cc1OC"
  LABEL_CLASS: "inactive"
- SMILES_STRING: "O=C(Cc1ccc(Nc2ccnc(C(F)(F)F)c2)cc1)Nc1cc(Cl)ccc1O"
  LABEL_CLASS: "inactive"
- SMILES_STRING: "Fc1cccc(Cl)c1Cn1c(-c2c(F)cccc2Cl)nc2ccccc21"
  LABEL_CLASS: "inactive"
- SMILES_STRING: "O=C(c1nn(-c2ccc(Cl)cc2)cc1O)n1nc(C(F)(F)F)cc1-c1ccccc1"
  LABEL_CLASS: "inactive"
